All values here come from paper PMC12682947.

procedure.text: Plasma pharmacokinetics and brain uptake of antrafenine in mice (LC-MS)
Format: in vivo, male C57BL/6 mice
experimental.parameters: male, C57BL/6, mouse, plasma; IV administration at 3mg/kg; read-out: Plasma CL
quantity.kind: clearance (mL/min/kg)
One number for each entry, in mL/min/kg.

-- ask Give the reported clearance for this compound. O=C(OCCN1CCN(c2cccc(C(F)(F)F)c2)CC1)c1ccccc1Nc1ccnc2cc(C(F)(F)F)ccc12 [antrafenine]
-- reply 27.1

###

procedure.text: Plasma pharmacokinetics and brain uptake of antrafenine in mice (LC-MS)
Format: in vivo, male C57BL/6 mice
experimental.parameters: male, C57BL/6, mouse, brain, iv, 3 mg/kg, IV 3 mg/kg, 0.25 h, n = 3; read-out: B:P ratio Mean ± SD
quantity.kind: Kp at 0.25 h
Numbers only.

-- ask // fetch Kp at 0.25 h given entry O=C(OCCN1CCN(c2cccc(C(F)(F)F)c2)CC1)c1ccccc1Nc1ccnc2cc(C(F)(F)F)ccc12 [antrafenine]
-- reply 0.042

###

procedure.text: Plasma pharmacokinetics and brain uptake of antrafenine in mice (LC-MS)
Format: in vivo, male C57BL/6 mice
experimental.parameters: male, C57BL/6, mouse, plasma, iv, 1 mg/kg, IV 1 mg/kg, 0.25 h, n = 3; read-out: Plasma Concentration Mean ± SD
quantity.kind: concentration at 0.25 h (nM)
One number for each entry, in nM.

-- ask Report concentration at 0.25 h for O=C(OCCN1CCN(c2cccc(C(F)(F)F)c2)CC1)c1ccccc1Nc1ccnc2cc(C(F)(F)F)ccc12
-- reply 297

###

procedure.text: Plasma pharmacokinetics and brain uptake of antrafenine in mice (LC-MS)
Format: in vivo, male C57BL/6 mice
experimental.parameters: male, C57BL/6, mouse, brain, iv, 3 mg/kg, IV 3 mg/kg, 4 h, individual mice; read-out: B:P ratio Individual
quantity.kind: Kp at 4 h
Answers are plain numbers.

-- ask Answer with reported Kp at 4 h of O=C(OCCN1CCN(c2cccc(C(F)(F)F)c2)CC1)c1ccccc1Nc1ccnc2cc(C(F)(F)F)ccc12
-- reply 0.32

###

procedure.text: Plasma pharmacokinetics and brain uptake of antrafenine in mice (LC-MS)
Format: in vivo, male C57BL/6 mice
experimental.parameters: male, C57BL/6, mouse, plasma, iv, 3 mg/kg, IV 3 mg/kg, 24 h, n = 3; read-out: Plasma Concentration Mean ± SD
quantity.kind: concentration at 24 h (nM)
One number for each entry, in nM.

-- ask Answer with the recorded concentration at 24 h of O=C(OCCN1CCN(c2cccc(C(F)(F)F)c2)CC1)c1ccccc1Nc1ccnc2cc(C(F)(F)F)ccc12 only.
-- reply 6.5

###

procedure.text: Plasma pharmacokinetics and brain uptake of antrafenine in mice (LC-MS)
Type: in vivo, male C57BL/6 mice
experimental.parameters: male, C57BL/6, mouse, brain, iv, 3 mg/kg, IV 3 mg/kg, 1 h, n = 3; read-out: Brain Parenchyma Concentration Mean ± SD
quantity.kind: concentration at 1 h
Write the quantity with the unit trailing the number.

-- ask Look up and report measured concentration at 1 h for this entry: O=C(OCCN1CCN(c2cccc(C(F)(F)F)c2)CC1)c1ccccc1Nc1ccnc2cc(C(F)(F)F)ccc12 [antrafenine]
-- reply 31.4 nM

###

procedure.text: Plasma pharmacokinetics and brain uptake of antrafenine in mice (LC-MS)
Format: in vivo, male C57BL/6 mice
experimental.parameters: male, C57BL/6, mouse, plasma, iv, 3 mg/kg, IV 3 mg/kg, 4 h, individual mice; read-out: Plasma Concentration Individual
quantity.kind: concentration at 4 h (nM)
Answers are plain numbers, in nM.

-- ask Supply reported concentration at 4 h belonging to this molecule: O=C(OCCN1CCN(c2cccc(C(F)(F)F)c2)CC1)c1ccccc1Nc1ccnc2cc(C(F)(F)F)ccc12 [antrafenine]
-- reply 53
